Test system: MOLM-13
Assay: Antiproliferative activity against human MOLM-13 cells assessed as reduction in cell viability measured after 72 hrs by Celltiter-Glo assay
Format: functional, cell-based
Conditions: MOLM-13, 72 h
experimentalEndpoint: IC50

Below: 5 compounds and their reported IC50.
smilesEntry: C=C(C)c1cn(-c2c(F)cccc2Cl)c(=O)c2cc(F)c(-n3nc(CO)n(CC)c3=O)cc12
experimentalEndpoint: IC50
observed: 0.1 nM
//
smilesEntry: CCn1c(CO)nn(-c2cc3c(C(C)C)cn(-c4c(F)cccc4Cl)c(=O)c3cc2F)c1=O
experimentalEndpoint: IC50
observed: 0.2 nM
//
smilesEntry: C=C(C)c1cn(-c2cc(F)ccc2C)c(=O)c2cc(F)c(-n3nc(CO)n(CC)c3=O)cc12
experimentalEndpoint: IC50
observed: 0.09 nM
//
smilesEntry: CCn1c(CO)nn(-c2cc3c(C(C)C)cn(-c4ccccc4C)c(=O)c3cc2F)c1=O
experimentalEndpoint: IC50
observed: 0.2 nM
//
smilesEntry: C=C(C)c1cn(-c2c(F)ccc(OC)c2Cl)c(=O)c2cc(F)c(-n3nc(CO)n(CC)c3=O)cc12
experimentalEndpoint: IC50
observed: 0.1 nM

Next item in the queue.
[in] Entry under review: C=C(C)c1cn(-c2ccccc2F)c(=O)c2cc(F)c(-n3nc(CO)n(CC)c3=O)cc12 . Reported IC50?
[out] 0.3 nM
